B1: NP_006221.1 (parent)
chain: CQPISFSGFGAEDDDLGGLGLGP

Variants of: B1
Test: protein stability index of a GFP-peptide fusion (GPS, HEK-293T) (PSI 1-6); higher = more stable;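 note: lentivirally expressed fusion library, cells FACS-sorted into six equal-sized GFP/DsRed ratio bins, PSI computed from sequencing read fractions per bin weighted by bin number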
Details: c terminus: native
Listing: protein stability index of selected variants
metric-name: protein stability index

>>> quantitative_readout("Q2A")
1.98
>>> quantitative_readout("D13N")
2.2
>>> quantitative_readout("D13Q")
2.21
>>> quantitative_readout("L19H")
2.96
>>> quantitative_readout("A11S")
2.22
>>> quantitative_readout("Q2I")
2.16
>>> quantitative_readout("S5V")
2.54
>>> quantitative_readout("L19C")
2.52
>>> quantitative_readout("G22H")
2.8
>>> quantitative_readout("P3R")
2.06
>>> quantitative_readout("C1V")
2.27
>>> quantitative_readout("P3D")
2.2
>>> quantitative_readout("F9D")
3.32
>>> quantitative_readout("L21M")
3.33
>>> quantitative_readout("P3H")
2.06
>>> quantitative_readout("L21W")
4.11
>>> quantitative_readout("L16G")
2.21
>>> quantitative_readout("G20A")
2.29
>>> quantitative_readout("L21I")
3.46
>>> quantitative_readout("F9A")
2.58
>>> quantitative_readout("G18C")
2.35
>>> quantitative_readout("D15V")
2.29
